Taken from ChEMBL document CHEMBL1201862.

system: SK-MEL-5; assay: NCI tumour cell line growth inhibition, 48 h
The source made the active and inactive calls. Cut-off read from the data, not from the text of the source: active = GI50 up to about 1.1 µM and inactive = higher.
Give your call using only these classes: active, inactive

// known answers, use as guide
{"molecule": "C/C=C/C1=CC(=O)C(O)C1O (stereo not drawn)", "discrete-label": "inactive"}
{"molecule": "O=C1[C@H](O)[C@@H]2C(O)O[C@H]3[C@@H]2N1C[C@H]3[Si](c1ccccc1)(c1ccccc1)c1ccccc1 (stereo partly drawn)", "discrete-label": "inactive"}
{"molecule": "C[C@]12CC(C#N)C(=O)C(O)=C1CC[C@@H]1C2CC[C@@]2(C)C1CC[C@@H]2O (stereo partly drawn)", "discrete-label": "inactive"}
{"molecule": "CCC(C(=O)C(=O)OC)P1(=O)OC(C)(C)CN1C(C)(C)C (stereo not drawn)", "discrete-label": "inactive"}
{"molecule": "O=C1CCCc2cc3c(cc21)CC1(C3)Cc2ccc3c(c2C1)C(=O)CCC3 (stereo not drawn)", "discrete-label": "inactive"}
{"molecule": "O=c1[nH]nc(Cc2ccc(Cl)cc2)n1/N=C/c1ccc([N+](=O)[O-])o1", "discrete-label": "inactive"}

Turning now to a further record.
Recorded test outcome, item O=C1C=Cc2c(Br)sc(Br)c21
inactive

---

test system: OVCAR-4; experiment: NCI tumour cell line growth inhibition, 48 h
Activity calls are given as the source filed them. No stated cut-off is given here; in the data, active = GI50 up to about 1.1 µM and inactive = higher.
Listing: GI50 of selected compounds

{"compound": "OCC(O)COCn1cc(Cn2ncc3c(NCc4ccccc4)ncnc32)nn1 (stereo not given)", "GI50": "> 100 µM (inactive)"}
{"compound": "CC1=N[C@](C)(C2CC3C=CC2C3=O)COC1=O (stereo not given in full)", "GI50": "> 100 µM (inactive)"}
{"compound": "COC(=O)C1=C(C(=O)OC)C(C(=O)OC)C(C(=O)OC)C(C(=O)OC)(C(=O)OC)C(C(=O)OC)=C1C(=O)OC (stereo not given)", "GI50": "22.8 µM (inactive)"}
{"compound": "Cn1cnc([N+](=O)[O-])c1Sc1nnc(C(F)(F)F)n1C", "GI50": "24.3 µM (inactive)"}

Which GI50 value is on record for ClC(Cl)=C(Cl)C1(Cl)CC1COCc1ccccc1 (stereo not given) ?
17.6 µM (inactive)

---

Listing: GI50 of selected compounds
test system: BT-549; assay: NCI tumour cell line growth inhibition, 48 h
Activity calls are given as the source filed them. Cut-off read from the data, not from the text of the source: active = GI50 up to about 1.1 µM and inactive = higher.

// known answers, use as guide
{"compound": "O=C1c2cccc3cc4ccccc4c(c23)C(=O)N1CCCNCCNCCCN1C(=O)c2cccc3cc4ccccc4c(c23)C1=O", "test-value": "1.24 µM (inactive)"}
{"compound": "O=c1c2nc[nH]c2n(-c2ccccc2)c(=S)n1-c1ccccc1", "test-value": "> 100 µM (inactive)"}
{"compound": "C=CCN(c1cc(OCc2ccccc2)c2c(c1)c(C)cn2S(=O)(=O)c1ccccc1)S(C)(=O)=O", "test-value": "> 100 µM (inactive)"}
{"compound": "Nc1cc(CO)cc(Nc2c3ccccc3nc3occc23)c1", "test-value": "19.4 µM (inactive)"}
{"compound": "COc1cccc(Nc2nc(N)nc(N)c2N=O)c1", "test-value": "28 µM (inactive)"}
{"compound": "COc1ccc2c(c1OC)C(Br)CCC(Br)(Br)C2=O (stereo not given)", "test-value": "7.87 µM (inactive)"}
{"compound": "O=C1C2CCCCC2C(=O)N1n1c(Cc2ccc(Cl)cc2)n[nH]c1=O (stereo not given)", "test-value": "> 100 µM (inactive)"}
{"compound": "O=C1c2ccccc2-n2c1nc1ccccc1c2=O [TRYPTANTHRIN]", "test-value": "14.6 µM (inactive)"}
{"compound": "Oc1ccc(Cl)cc1Sc1cc(Cl)ccc1O [FENTICLOR]", "test-value": "12.9 µM (inactive)"}

Which GI50 value is on record for CC(C)=CCC/C(C)=C/CC/C(C)=C/[C@@H]1[C@@H](CO)[C@]1(C)CC/C=C(\C)CCC=C(C)C ?
> 100 µM (inactive)

---

Listing: GI50 of selected compounds
test system: OVCAR-3; assay: NCI tumour cell line growth inhibition, 48 h
Active and inactive are the calls of the source. No stated cut-off is given here; in the data, active = GI50 up to about 1.1 µM and inactive = higher.

{"compound": "O=C1c2cccc3cc4ccccc4c(c23)C(=O)N1CCCNCCNCCCN1C(=O)c2cccc3cc4ccccc4c(c23)C1=O", "test-value": "0.353 µM (active)"}
{"compound": "ClC(Cl)=C(Cl)C1(Cl)CC1COCc1ccccc1 (stereo unspecified)", "test-value": "22.6 µM (inactive)"}
{"compound": "O=C1Nc2c(ccc(Cl)c2I)C1=O", "test-value": "19.9 µM (inactive)"}
{"compound": "O=C(c1cccs1)N(C(=O)N1CCN(c2ccccc2)CC1)S(=O)(=O)c1ccccc1", "test-value": "32.2 µM (inactive)"}
{"compound": "Cc1cc(S(=O)(=O)Nc2n[nH]c(Nc3ccccc3)n2)c(S)cc1Cl", "test-value": "> 10 µM (inactive)"}

Which GI50 value is on record for Cc1ccccc1C1OC(=O)c2ccccc21 (stereo unspecified) ?
> 100 µM (inactive)

---

tested on: SF-295; assay: NCI tumour cell line growth inhibition, 48 h
Calls of active or inactive are those of the source. No stated cut-off is given here; in the data, active = GI50 up to about 1.1 µM and inactive = higher.
measure-name: GI50

// known answers, use as guide
{"compound": "CC1(Cl)CCC2(CC(Br)=CC3OC32C)CC1Br (stereo unspecified)", "test-value": "22.6 µM (inactive)"}
{"compound": "CCOC(C/N=c1/nc(N(C)C)ss1)OCC", "test-value": "22.2 µM (inactive)"}
{"compound": "c1cncc(C2c3[nH]c4ccccc4c3CCN2CCN2CCCCC2)c1 (stereo unspecified)", "test-value": "> 100 µM (inactive)"}

Which GI50 value is on record for COC(=O)/C=C\C(C#N)(C#N)/N=C/c1cccs1 ?
18.8 µM (inactive)

Which GI50 value is on record for Cc1cc(Cl)ccc1NC(=O)C1C(=O)N(c2ccc(Cl)cc2C)C(=O)/C1=N\NC(N)=S (stereo unspecified) ?
29.9 µM (inactive)

Which GI50 value is on record for O=C(Nc1cc(Cl)ccc1Cl)c1cc2cccc(Cl)c2oc1=O ?
> 100 µM (inactive)

---

system: IGROV-1; assay: NCI tumour cell line growth inhibition, 48 h
Active and inactive are the calls of the source. No stated cut-off is given here; in the data, active = GI50 up to about 1.1 µM and inactive = higher.
Give your call using only these classes: YES for active, NO for inactive

// known answers, use as guide
{"molecule": "O=C(O)C(CO)NC(=O)n1c2ccccc2c2ccccc21 (stereo not given)", "discrete-label": "NO"}
{"molecule": "COC(=O)C1=C(C(=O)OC)C(C(=O)OC)C(C(=O)OC)C(C(=O)OC)(C(=O)OC)C(C(=O)OC)=C1C(=O)OC (stereo not given)", "discrete-label": "NO"}
{"molecule": "CSc1nnc(C(C#N)C#N)nn1", "discrete-label": "NO"}
{"molecule": "Nc1ccc2ccc(-c3ccc[nH]3)nc2n1", "discrete-label": "NO"}
{"molecule": "CC12CCC(=O)N1c1cccnc1N2 (stereo not given)", "discrete-label": "NO"}

Recorded test outcome, item O=C(c1nc2ccc(Cl)cc2nc1O)C(O)c1ccccc1 (stereo not given)
NO

Recorded test outcome, item CC(C)=CCC[C@@H](C)[C@H]1CC[C@@]2(C)[C@@H]3CC[C@H]4C(C)(C)[C@@H](O)CC[C@@]45C[C@@]35CC[C@]12C [CYCLOARTENOL]
NO

Recorded test outcome, item ClC(Cl)=C(Cl)C1(Cl)CC1COCc1ccccc1 (stereo not given)
NO

Recorded test outcome, item COc1ccc(COCC[C@H](C)OC2OC(CO[Si](C)(C)C(C)(C)C)C(OC(=O)CCCN=[N+]=[N-])C(OC(=O)CCCN=[N+]=[N-])C2OC(=O)CCCN=[N+]=[N-])cc1 (stereo not given in full)
NO

Recorded test outcome, item Fc1cc2nc3n(c2cc1F)C(c1c(Cl)cccc1Cl)SC3 (stereo not given)
NO

---

test system: HCC 2998; assay: NCI tumour cell line growth inhibition, 48 h
Activity calls are given as the source filed them. Rule as the data show it: active = GI50 up to about 1.1 µM and inactive = higher.
measure-name: GI50

// known answers, use as guide
{"compound": "CC(=O)OC1CC2(C)OC(Cc3ccccc32)O1 (stereo unspecified)", "target-entity": "HCC 2998", "GI50": "> 100 µM (inactive)"}
{"compound": "O=C1c2cc3c(cc2CC12Cc1ccc4c(c1C2=O)CCCC4)CCCC3 (stereo unspecified)", "target-entity": "HCC 2998", "GI50": "> 100 µM (inactive)"}
{"compound": "OCCNc1ncnc2c1ncn2C1OC(CO)C(O)C1O (stereo unspecified)", "target-entity": "HCC 2998", "GI50": "64.9 µM (inactive)"}
{"compound": "O=C(CCN1CCN(c2ccccc2)CC1)N1CCc2c([nH]c3ccccc23)C1c1cccnc1 (stereo unspecified)", "target-entity": "HCC 2998", "GI50": "21.7 µM (inactive)"}
{"compound": "Cn1cc(NC(=O)[C@H]2CCC(N)=N2)cc1C(=O)NCCC(=N)N", "target-entity": "HCC 2998", "GI50": "> 100 µM (inactive)"}

Form entry - test system: HCC 2998; read-out: GI50; compound: Cn1c(=O)nc2n(CCO)ccnc-2c1=O
> 100 µM (inactive)
